Tested System: T1, hOrai1-mOrai1 ECL2 (…) protein (human/mouse chimera, UniProt Q96D31 1-301)
T1 construct: also called Ch
T1 sequence (Q96D31 other isoform, or with tags, fused parts or gaps): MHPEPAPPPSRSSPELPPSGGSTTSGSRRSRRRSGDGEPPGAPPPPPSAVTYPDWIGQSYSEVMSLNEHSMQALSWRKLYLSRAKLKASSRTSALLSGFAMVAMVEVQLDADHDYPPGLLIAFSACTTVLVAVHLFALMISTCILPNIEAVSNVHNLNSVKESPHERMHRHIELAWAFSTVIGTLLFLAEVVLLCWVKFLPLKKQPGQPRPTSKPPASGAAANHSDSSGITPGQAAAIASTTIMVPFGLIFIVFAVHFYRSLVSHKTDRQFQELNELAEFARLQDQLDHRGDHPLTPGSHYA
Assay Explanation: FACS, 293EBNA, RFI-POC grade
Set-up: concentration or dose not given beside the values
Parameter: percent of control (POC) of FACS Geo Mean

Binder: mAb 5B1.1 (antibody, human IgG2, lambda, V domains shown, fully human IgG2 lambda, Campaign 2; also called mAb 5Bl1.1) VH: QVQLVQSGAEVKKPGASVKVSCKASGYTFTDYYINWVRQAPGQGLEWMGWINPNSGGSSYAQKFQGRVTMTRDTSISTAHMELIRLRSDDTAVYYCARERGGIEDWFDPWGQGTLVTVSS VL: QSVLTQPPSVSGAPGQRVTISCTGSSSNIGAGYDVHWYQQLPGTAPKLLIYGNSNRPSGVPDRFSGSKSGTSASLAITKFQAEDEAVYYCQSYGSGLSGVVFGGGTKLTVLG
Experimental Value: 40 to 100%

[Q] # query: percent of control (POC) of FACS Geo Mean of entry mAb 5A4.2 (antibody, human IgG2, lambda, V domains shown, fully human IgG2 lambda, Campaign 2) VH: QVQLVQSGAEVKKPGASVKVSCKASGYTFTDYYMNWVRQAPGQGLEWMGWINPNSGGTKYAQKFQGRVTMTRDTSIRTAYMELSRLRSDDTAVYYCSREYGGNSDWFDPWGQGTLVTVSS VL: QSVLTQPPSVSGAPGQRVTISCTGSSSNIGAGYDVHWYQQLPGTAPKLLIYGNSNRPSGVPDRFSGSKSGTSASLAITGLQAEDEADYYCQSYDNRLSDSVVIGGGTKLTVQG
[A] 40 to 100%
